assay: Inhibition of sodium channel (unknown origin) expressed in HEK cells assessed as reduction in peak sodium current by automated patch clamp method; format: cell-based; conditions: Homo sapiens, HEK293
pIC50: −log10 of the molar value.
Label True when pIC50 >= 4; otherwise False.

- Cc1cccc(OCC(N)c2ccccc2)c1C.Cl (configuration not stated): True
- Cc1cc(C)cc(OCC(C)N)c1.Cl (configuration not stated): False
- Cc1cc(C)cc(OCC(N)c2ccccc2)c1.Cl (racemic): True
- Cl.NC(COc1ccccc1C(F)(F)F)c1ccccc1 (racemic): True

====

assay: Tmax in Sprague-Dawley rat at 5 mg/kg, iv measured upto 25 hrs by LCMS analysis; assay type: ADME, organism-based; conditions: in vivo
Readout Name: Tmax

* Cc1cccc(C)c1OCC(C)N (centres undefined) [MEXILETINE] | 10.2 min
* Cl.N[C@@H](COc1ccccc1C(F)(F)F)c1ccccc1 | 10.8 min
* Cl.N[C@H](COc1ccccc1C(F)(F)F)c1ccccc1 | 10.2 min
* Cl.NC(COc1ccccc1C(F)(F)F)c1ccccc1 (racemic) | 10.2 min

====

experiment: Inhibition of sodium channel (unknown origin) expressed in HEK cells assessed as reduction in late inward sodium current by automated patch clamp method; format: cell-based; conditions: Homo sapiens, HEK293
Readout Name: IC50 (µM)

- COCCNC(COc1cc(C)cc(C)c1)c1ccccc1.Cl (stereo not drawn): 0.753
- Cc1cccc(C)c1OCC(N)C1CC1.Cl (stereo not drawn): 7.4
- Cc1ccc(C)c(OCC(N)C2CC2)c1.Cl (stereo not drawn): 51.8
- Cc1cccc(OCC(N)c2ccccc2)c1C.Cl (stereo not drawn): 1.03
- CNC(C)COc1c(C)cccc1C.Cl (stereo not drawn): 36
- COCCNC(COc1cccc(C)c1C)c1ccccc1.Cl (racemic): 0.747
- Cl.NC(COc1cc(C(F)(F)F)cc(C(F)(F)F)c1)c1ccccc1 (stereo not drawn): 1.03
- Cc1cccc(C)c1OCC(N)C(C)(C)C.Cl (stereo not drawn): 11.4
- Cl.NC(COc1ccccc1C(F)(F)F)c1ccccc1 (racemic): 1.04
- Cc1cc(C)cc(OCC(N)C2CC2)c1.Cl (stereo not drawn): 10
- Cc1cc(C)cc(OCC(C)N)c1.Cl (stereo not drawn): 17.3
- Cl.OCCNC(COc1cc(C(F)(F)F)cc(C(F)(F)F)c1)c1ccccc1 (stereo not drawn): 1.02
- Cc1cc(C)cc(OCC(N)c2ccccc2)c1.Cl (racemic): 0.2

====

assay: Cmax in Sprague-Dawley rat at 5 mg/kg, iv measured upto 25 hrs by LCMS analysis; assay type: ADME, organism-based; set-up: route intravenous, dose 5 mg/kg, time <=25; conditions: in vivo
Items are presented alongside their recorded Cmax.
Readout Name: Cmax (ng/mL)

* Cl.N[C@H](COc1ccccc1C(F)(F)F)c1ccccc1 | 219
* Cc1cccc(C)c1OCC(C)N (centres undefined) | 289
* Cl.N[C@@H](COc1ccccc1C(F)(F)F)c1ccccc1 | 249
* Cl.NC(COc1ccccc1C(F)(F)F)c1ccccc1 (racemic) | 250

====

assay: Inhibition of potassium channel (unknown origin) expressed in CHO cells assessed as reduction in potassium current by automated patch clamp method; assay type: cell-based
pIC50: −log10 of the molar value.
Readout Name: pIC50

* COCCNC(COc1cccc(C)c1C)c1ccccc1.Cl (racemic) | 4.56
* Cl.NC(COc1ccccc1C(F)(F)F)c1ccccc1 (racemic) | 4.43
* Cc1ccc(C)c(OCC(N)C2CC2)c1.Cl (stereo not given) | 4.01
* Cc1cccc(OCC(N)c2ccccc2)c1C.Cl (stereo not given) | 5.04
* Cc1cccc(C)c1OC[C@H](C)N [(S)-MEXILETINE] | 4.27
* Cc1cccc(C)c1OCC(C)N (stereo not given) [MEXILETINE] | 4.27
* CNC(C)COc1c(C)cccc1C.Cl (stereo not given) | 4.36
* Cc1cc(C)cc(OCC(N)c2ccccc2)c1.Cl (racemic) | 5.21
* Cc1cc(C)cc(OCC(C)N)c1.Cl (stereo not given) | 4.31
* COCCNC(COc1cc(C)cc(C)c1)c1ccccc1.Cl (stereo not given) | 5.29

====

Items are presented alongside their recorded half-life at 50 µM.
experiment: Metabolic stability in human liver S9 fraction assessed as half life at 50 uM measured upto 60 mins by HPLC method; format: ADME, subcellular
Readout Name: half-life at 50 µM (h)

• Cc1cc(C)cc(OC[C@H](N)c2ccccc2)c1.Cl = 16.9
• Cc1ccccc1OC[C@H](N)c1ccccc1.Cl = 6.8

====

assay: Half life in Sprague-Dawley rat at 5 mg/kg, iv measured upto 25 hrs by LCMS analysis; format: ADME, organism-based; conditions: in vivo
Readout Name: t1/2 (h)

- Cl.N[C@@H](COc1ccccc1C(F)(F)F)c1ccccc1: 1.2
- Cc1cccc(C)c1OCC(C)N (centres undefined): 10.6
- Cl.NC(COc1ccccc1C(F)(F)F)c1ccccc1 (racemic): 3.2
- Cl.N[C@H](COc1ccccc1C(F)(F)F)c1ccccc1: 3.8

====

Items are presented alongside their recorded Cmax.
assay: Cmax in Sprague-Dawley rat at 25 mg/kg, po measured upto 25 hrs by LCMS analysis; type: ADME, organism-based; design: route oral, dose 25 mg/kg, time <=25; conditions: in vivo
Readout Name: Cmax (ng/mL)

* Cc1cccc(C)c1OCC(C)N (centres undefined) | 167
* Cl.N[C@H](COc1ccccc1C(F)(F)F)c1ccccc1 | 226
* Cl.NC(COc1ccccc1C(F)(F)F)c1ccccc1 (racemic) | 226
* Cl.N[C@@H](COc1ccccc1C(F)(F)F)c1ccccc1 | 258

====

experiment: Antiarrhythmic activity in hiPSC-CMs assessed as dose for induction of early after depolarizations; conditions: human, ipsc-cm
Readout Name: Activity

• Cl.NC(COc1ccccc1OCC(F)(F)F)c1ccccc1 (configuration not stated) = Not Active
• COCCNC(COc1cc(C)cc(C)c1)c1ccccc1.Cl (configuration not stated) = Not Active
• Cc1cccc(C)c1OC[C@H](C)N [(S)-MEXILETINE] = 200 µM
• Cc1ccc(C(N)COc2c(C)cccc2C)cc1.Cl (configuration not stated) = Not Active
• CNC(COc1cccc(C)c1C)c1ccccc1.Cl (configuration not stated) = Not Active
• CC(N)COc1cccc(C(F)(F)F)c1.Cl (configuration not stated) = Not Active
• CCCc1ccccc1OCC(N)c1ccccc1.Cl (configuration not stated) = Not Active
• CCCNC(COc1cccc(C)c1C)c1ccccc1.Cl (configuration not stated) = Not Active
• Cl.NC(COc1ccccc1OC(F)(F)F)c1ccccc1 (configuration not stated) = Not Active
• Cc1cccc(C)c1OCC(C)N (configuration not stated) = 200 µM
• Cc1cccc(C)c1OCC(N)C(C)(C)C.Cl (configuration not stated) = 7.4 µM
• CC(N)COc1cc(C(F)(F)F)cc(C(F)(F)F)c1.Cl (configuration not stated) = Not Active
• CCNC(C)COc1c(C)cccc1C.Cl (configuration not stated) = 133 µM
• COCCNC(C)COc1c(C)cccc1C.Cl (configuration not stated) = 66 µM
• Cc1cccc(C)c1OCC(N)c1ccc2ccccc2c1.Cl (configuration not stated) = Not Active
• Cl.NC(COc1cccc(C(F)(F)F)c1)c1ccccc1 (configuration not stated) = Not Active
• COc1ccccc1OCC(C)N.Cl (configuration not stated) = 133 µM
• CCc1ccccc1OCC(C)N.Cl (configuration not stated) = Not Active
• Cc1cccc(C)c1OCC(NC(=O)c1ccccc1)c1ccccc1 (configuration not stated) = Not Active
• COc1ccccc1OCC(N)c1ccccc1.Cl (configuration not stated) = 7.4 µM
• Cc1cccc(C)c1OCC(C)NCc1ccccc1.Cl (configuration not stated) = Not Active
• CCCNC(C)COc1c(C)cccc1C.Cl (configuration not stated) = 66 µM
• Cl.NC(COc1ccc2ccccc2c1)c1ccccc1 (configuration not stated) = Not Active
• Cc1cc(C)cc(OCC(N)c2ccccc2)c1.Cl (racemic) = Not Active
• COCCNC(COc1cc(C(F)(F)F)cc(C(F)(F)F)c1)c1ccccc1.Cl (configuration not stated) = Not Active
• Cc1cccc(C)c1OC[C@@H](C)N [(R)-MEXILETINE] = 200 µM
• CC(=O)NC(COc1c(C)cccc1C)c1ccccc1 (configuration not stated) = Not Active
• Cc1cccc(C)c1OCC(C)Nc1ccccc1.Cl (configuration not stated) = Not Active
• Cc1ccc(OCC(N)C2CC2)c(C)c1.Cl (configuration not stated) = 66 µM
• Cc1ccc(C)c(OCC(N)C2CC2)c1.Cl (configuration not stated) = 66 µM
• CCCCNC(COc1cccc(C)c1C)c1ccccc1.Cl (configuration not stated) = Not Active
• Cc1cccc(C)c1OCC(N)C1CCCCC1.Cl (configuration not stated) = Not Active

FYI, the data here is from ChEMBL document CHEMBL4808187.
